target: UniProt O35433; test: Agonist activity at rat TRPV1 expressed in CHO cells assessed as maximal calcium uptake relative to capsaicin; format: functional, cell-based
measuredQuantity: Activity (%)

Illustrative cases are given below, each with its answer.
COc1cc(CNC(=S)NCC(COC(=O)C(C)(C)C)Cc2ccc(C)c(C)c2)c(Br)cc1O (stereo not given) :: 13
COc1cc(CNC(=S)NCC(COC(=O)C(C)(C)C)Cc2ccc(C)c(C)c2)cc(Cl)c1O (stereo not given) :: 93

P: COc1cc(CNC(=S)NCC(COC(=O)C(C)(C)C)Cc2ccc(C)c(C)c2)c(Cl)cc1O (stereo not given)
Q: COc1cc(CNC(=S)NC(CCc2ccc(C(C)(C)C)cc2)COC(=O)C(C)(C)C)cc(Br)c1O (stereo not given)
R: COc1cc(CNC(=S)NC(COC(=O)C(C)(C)C)Cc2ccc(C(C)(C)C)cc2)c(Br)cc1O (stereo not given)
Please rank these molecules by Activity in descending order. Return value: ordered labels per request.
P, R, Q
(P: 63%, R: 41%, Q: 19%)

* * *

target: UniProt O35433; assay: Antagonist activity at rat TRPV1 expressed in CHO cells assessed as inhibition of calcium uptake; assay type: functional, cell-based
pKi: −log10 of the molar value.
measuredQuantity: pKi

COc1cc(CNC(=S)NCC(COC(=O)C(C)(C)C)Cc2ccc(C(C)(C)C)cc2)cc(I)c1O (configuration not stated) :: 6.99
COc1cc(CNC(=S)NCC(COC(=O)C(C)(C)C)Cc2ccc(C(C)(C)C)cc2)c(Br)cc1O (configuration not stated) :: 7.26
CCCCCCCCC(=O)NCc1cc(OC)c(O)cc1I :: 6.90

a: COc1cc(CNC(=S)NC(CCc2ccc(C(C)(C)C)cc2)COC(=O)C(C)(C)C)c(Cl)cc1O (configuration not stated)
b: COc1cc(CNC(=S)NCC(COC(=O)C(C)(C)C)Cc2ccc(C)c(C)c2)c(I)cc1O (configuration not stated)
Out of a and b , name the one with the higher pKi. API: response body contains the label of the selected item.
b

P: COc1cc(CNC(=S)NCc2ccc(C(C)(C)C)cc2)c(Br)cc1O
Q: COc1cc(CNC(=S)NC(COC(=O)C(C)(C)C)Cc2ccc(C(C)(C)C)cc2)c(I)cc1O (configuration not stated)
Out of P and Q , name the one with the higher pKi. API: response body contains the label of the selected item.
P
(P: 7.52, Q: 6.51)

* * *

target: Transient receptor potential cation channel subfamily V member 1 (Rattus norvegicus) (UniProt O35433); test: Antagonist activity at rat TRPV1 expressed in CHO cells assessed as inhibition of calcium uptake; type: functional, cell-based; parameters: concentration or dose not given beside the values; settings: concentration not given here
Sequence (O35433 whole entry): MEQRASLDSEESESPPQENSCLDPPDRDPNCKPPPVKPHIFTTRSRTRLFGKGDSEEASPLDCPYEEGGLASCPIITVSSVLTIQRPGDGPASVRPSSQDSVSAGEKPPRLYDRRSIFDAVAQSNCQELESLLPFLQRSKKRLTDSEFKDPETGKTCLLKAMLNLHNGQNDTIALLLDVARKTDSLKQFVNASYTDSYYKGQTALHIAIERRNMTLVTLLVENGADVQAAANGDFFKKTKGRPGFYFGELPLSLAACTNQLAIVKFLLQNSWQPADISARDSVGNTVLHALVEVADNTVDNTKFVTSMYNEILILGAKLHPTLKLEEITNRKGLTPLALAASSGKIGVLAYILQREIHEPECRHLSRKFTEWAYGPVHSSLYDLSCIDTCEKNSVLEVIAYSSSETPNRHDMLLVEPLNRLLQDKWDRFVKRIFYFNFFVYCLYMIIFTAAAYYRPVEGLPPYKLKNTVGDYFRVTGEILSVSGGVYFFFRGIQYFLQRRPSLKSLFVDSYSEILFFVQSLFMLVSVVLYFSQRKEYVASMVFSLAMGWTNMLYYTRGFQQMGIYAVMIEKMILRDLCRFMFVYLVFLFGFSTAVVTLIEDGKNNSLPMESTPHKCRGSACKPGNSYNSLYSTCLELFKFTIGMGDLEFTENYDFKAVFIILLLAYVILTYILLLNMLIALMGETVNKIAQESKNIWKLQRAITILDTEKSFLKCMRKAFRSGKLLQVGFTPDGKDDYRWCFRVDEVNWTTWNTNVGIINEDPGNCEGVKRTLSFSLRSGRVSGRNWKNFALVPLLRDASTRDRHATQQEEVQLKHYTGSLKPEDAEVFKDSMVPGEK
measuredQuantity: inhibition (%)

1: COc1cc(CNC(=S)NCc2ccc(C(C)(C)C)cc2)c(Cl)cc1O
2: COc1cc(CNC(=S)NC(CCc2ccc(C(C)(C)C)cc2)COC(=O)C(C)(C)C)cc(Cl)c1O (configuration not stated)
Out of 1 and 2 , name the one with the higher inhibition. API: response body contains the label of the selected item.
1
(1: 81%, 2: 47%)

A: COc1cc(CNC(=S)NCC(COC(=O)C(C)(C)C)Cc2ccc(C(C)(C)C)cc2)cc(Br)c1O (configuration not stated)
B: COc1cc(CNC(=S)NCC(COC(=O)C(C)(C)C)Cc2ccc(C)c(C)c2)c(Cl)cc1O (configuration not stated)
# compare inhibition for A vs B ; return the one with the smaller value API: response body contains the label of the selected item.
B

* * *

target: Transient receptor potential cation channel subfamily V member 1 (Rattus norvegicus, UniProt O35433); test: Displacement of [3H]RTX from rat TRPV1 expressed in CHO cells; type: cell-based
pKi: −log10 of the molar value.
measuredQuantity: pKi

Illustrative cases are given below, each with its answer.
COc1cc(CNC(=S)NC(CCc2ccc(C)c(C)c2)COC(=O)C(C)(C)C)c(Cl)cc1O (stereo unspecified) :: 6.99
COc1cc(CNC(=S)NC(CCc2ccc(C(C)(C)C)cc2)COC(=O)C(C)(C)C)ccc1O (stereo unspecified) :: 7.44
COc1cc(CNC(=S)NCc2ccc(C(C)(C)C)cc2)c(Br)cc1O :: 7.38
COc1cc(CNC(=S)NCC(COC(=O)C(C)(C)C)Cc2ccc(C)c(C)c2)cc(Br)c1O (stereo unspecified) :: 7.48
COc1cc(CNC(=S)NCc2ccc(C(C)(C)C)cc2)cc(Br)c1O :: 7.29

I: COc1cc(CNC(=S)NCC(COC(=O)C(C)(C)C)Cc2ccc(C(C)(C)C)cc2)cc(I)c1O (stereo unspecified)
II: COc1cc(CNC(=S)NC(CCc2ccc(C(C)(C)C)cc2)COC(=O)C(C)(C)C)c(Br)cc1O (stereo unspecified)
III: COc1cc(CNC(=S)NC(CCc2ccc(C)c(C)c2)COC(=O)C(C)(C)C)c(I)cc1O (stereo unspecified)
Please rank these compounds by pKi in descending order. Return value: ordered labels per request.
I, II, III

I: COc1cc(CNC(=S)NC(COC(=O)C(C)(C)C)Cc2ccc(C(C)(C)C)cc2)c(Cl)cc1O (stereo unspecified)
II: COc1cc(CNC(=S)NCC(COC(=O)C(C)(C)C)Cc2ccc(C)c(C)c2)c(Br)cc1O (stereo unspecified)
III: COc1cc(CNC(=S)NCc2ccc(C(C)(C)C)cc2)c(I)cc1O
IV: COc1cc(CNC(=S)NC(CCc2ccc(C(C)(C)C)cc2)COC(=O)C(C)(C)C)c(Cl)cc1O (stereo unspecified)
V: COc1cc(CNC(=S)NCC(COC(=O)C(C)(C)C)Cc2ccc(C)c(C)c2)cc(I)c1O (stereo unspecified)
Please rank these compounds by pKi in descending order. Return value: ordered labels per request.
II, I, IV, III, V

* * *

target: Transient receptor potential cation channel subfamily V member 1 (Rattus norvegicus) (UniProt O35433); assay: Antagonist activity at rat TRPV1 expressed in CHO cells assessed as inhibition of calcium uptake; type: functional, cell-based; design: concentration or dose not given beside the values; conditions: concentration not given here
Here the recorded inhibition is given for each entry.
The reply should be a number in %, with the unit left off.

Illustrative cases are given below, each with its answer.
COc1cc(CNC(=S)NCc2ccc(C(C)(C)C)cc2)cc(Cl)c1O :: 92
COc1cc(CNC(=S)NCC(COC(=O)C(C)(C)C)Cc2ccc(C(C)(C)C)cc2)cc(Cl)c1O (stereo not drawn) :: 37

Consider now this further compound.
Record COc1cc(CNC(=S)NC(CCc2ccc(C)c(C)c2)COC(=O)C(C)(C)C)cc(Br)c1O (stereo not drawn) . Reported inhibition: 59

* * *

biological target: Transient receptor potential cation channel subfamily V member 1 (Rattus norvegicus); assay: Displacement of [3H]RTX from rat TRPV1 expressed in CHO cells; type: cell-based
pKi: −log10 of the molar value.
measuredQuantity: pKi

COc1cc(CNC(=S)NC(COC(=O)C(C)(C)C)Cc2ccc(C(C)(C)C)cc2)c(Br)cc1O (stereo not drawn) :: 7.13

A: COc1cc(CNC(=S)NCc2ccc(C(C)(C)C)cc2)c(Cl)cc1O
B: COc1cc(CNC(=S)NCC(COC(=O)C(C)(C)C)Cc2ccc(C(C)(C)C)cc2)c(Br)cc1O (stereo not drawn)
# compare pKi for A vs B ; return the one with the smaller value API: response body contains the label of the selected item.
A

P: COc1cc(CNC(=S)NC(COC(=O)C(C)(C)C)Cc2ccc(C(C)(C)C)cc2)cc(Cl)c1O (stereo not drawn)
Q: COc1cc(CNC(=S)NC(CCc2ccc(C)c(C)c2)COC(=O)C(C)(C)C)c(Br)cc1O (stereo not drawn)
R: COc1cc(CNC(=S)NCC(COC(=O)C(C)(C)C)Cc2ccc(C(C)(C)C)cc2)c(I)cc1O (stereo not drawn)
Please rank these molecules by pKi in descending order. Return value: ordered labels per request.
R, P, Q

I: COc1cc(CNC(=S)NC(COC(=O)C(C)(C)C)Cc2ccc(C(C)(C)C)cc2)cc(Br)c1O (stereo not drawn)
II: COc1cc(CNC(=S)NCC(COC(=O)C(C)(C)C)Cc2ccc(C)c(C)c2)c(I)cc1O (stereo not drawn)
Out of I and II , name the one with the higher pKi. API: response body contains the label of the selected item.
II

* * *

target: Transient receptor potential cation channel subfamily V member 1 (Rattus norvegicus); test: Displacement of [3H]RTX from rat TRPV1 expressed in CHO cells; type: cell-based
pKi: −log10 of the molar value.
measuredQuantity: pKi

COc1cc(CNC(=S)NCC(COC(=O)C(C)(C)C)Cc2ccc(C(C)(C)C)cc2)cc(Cl)c1O (stereo not given) :: 7.67
COc1cc(CNC(=S)NC(COC(=O)C(C)(C)C)Cc2ccc(C(C)(C)C)cc2)c(I)cc1O (stereo not given) :: 7.02
COc1cc(CNC(=S)NCc2ccc(C(C)(C)C)cc2)cc(Cl)c1O :: 7.12
COc1cc(CNC(=S)NCc2ccc(C(C)(C)C)cc2)ccc1O :: 7.23
COc1cc(CNC(=S)NC(CCc2ccc(C)c(C)c2)COC(=O)C(C)(C)C)cc(Br)c1O (stereo not given) :: 6.99
